Tested on: carbapenem-resistant Klebsiella pneumoniae clinical isolates (blaKPC)
Experiment: DDM (digital dispensing method) MIC testing of CRE isolates
Type: cell-based
Conditions: Klebsiella pneumoniae, BIDMC 4, KPN, KPC type 3; read-out: DDM modal MICs
Collected MIC values appear next to each entry.
Please format your answer as a value with the unit trailing.

Examples from the recorded data:
[
  {
    "compound": "C[C@@H](O)[C@H]1C(=O)N2C(C(=O)O)=C(S[C@@H]3CN[C@H](C(=O)Nc4cccc(C(=O)O)c4)C3)[C@H](C)[C@H]12 [ETP, ertapenem]",
    "tested_system": "carbapenem-resistant Klebsiella pneumoniae clinical isolates (blaKPC)",
    "recorded_result": "32 µg/mL"
  },
  {
    "compound": "C[C@H]1COc2c(N3CCN(C)CC3)c(F)cc3c(=O)c(C(=O)O)cn1c23 [LVX, levofloxacin]",
    "tested_system": "carbapenem-resistant Klebsiella pneumoniae clinical isolates (blaKPC)",
    "recorded_result": "128 µg/mL"
  },
  {
    "compound": "CO[C@H]1/C=C/O[C@@]2(C)Oc3c(C)c(O)c4c(O)c(c(/C=N/N5CCN(C)CC5)c(O)c4c3C2=O)NC(=O)/C(C)=C\\C=C\\[C@H](C)[C@H](O)[C@@H](C)[C@@H](O)[C@@H](C)[C@H](OC(C)=O)[C@@H]1C [RIF, rifampin]",
    "tested_system": "carbapenem-resistant Klebsiella pneumoniae clinical isolates (blaKPC)",
    "recorded_result": "32 µg/mL"
  },
  {
    "compound": "CN(C)c1ccc(O)c2c1C[C@H]1C[C@H]3[C@H](N(C)C)C(O)=C(C(N)=O)C(=O)[C@@]3(O)C(O)=C1C2=O [MIN, minocycline]",
    "tested_system": "carbapenem-resistant Klebsiella pneumoniae clinical isolates (blaKPC)",
    "recorded_result": "8 µg/mL"
  },
  {
    "compound": "CO/N=C(\\C(=O)N[C@@H]1C(=O)N2C(C(=O)[O-])=C(C[N+]3(C)CCCC3)CS[C@H]12)c1csc(N)n1 [FEP, cefepime]",
    "tested_system": "carbapenem-resistant Klebsiella pneumoniae clinical isolates (blaKPC)",
    "recorded_result": "64 µg/mL"
  }
]

Lookup: Tell me MIC reported for C[C@@H]1O[C@@H]1P(=O)(O)O [FOF, fosfomycin]
Found: 128 µg/mL

Lookup: Tell me MIC reported for C[C@@H](O)[C@H]1C(=O)N2C(C(=O)O)=C(S[C@@H]3CN[C@H](C(=O)N(C)C)C3)[C@H](C)[C@H]12 [Meropenem (MEM), Meropenem]
Found: 32 µg/mL

====

Collected MIC values appear next to each entry.
Tested on: carbapenem-resistant Escherichia coli clinical isolates (blaKPC)
Experiment: DDM (digital dispensing method) MIC testing of CRE isolates
Assay type: cell-based
Details: Escherichia coli, BIDMC 20A, ECO, KPC type 3; read-out: DDM modal MICs
Write the answer as a number in µg/mL, unit excluded.

Examples from the recorded data:
[
  {
    "compound": "C[C@@H](O)[C@H]1C(=O)N2C(C(=O)O)=C(S[C@@H]3CN[C@H](C(=O)N(C)C)C3)[C@H](C)[C@H]12",
    "tested_system": "carbapenem-resistant Escherichia coli clinical isolates (blaKPC)",
    "MIC, µg/mL": 1
  },
  {
    "compound": "C[C@@H]1O[C@@H]1P(=O)(O)O",
    "tested_system": "carbapenem-resistant Escherichia coli clinical isolates (blaKPC)",
    "MIC, µg/mL": 1
  },
  {
    "compound": "C[C@H]1COc2c(N3CCN(C)CC3)c(F)cc3c(=O)c(C(=O)O)cn1c23",
    "tested_system": "carbapenem-resistant Escherichia coli clinical isolates (blaKPC)",
    "MIC, µg/mL": 32
  },
  {
    "compound": "CN(C)c1ccc(O)c2c1C[C@H]1C[C@H]3[C@H](N(C)C)C(O)=C(C(N)=O)C(=O)[C@@]3(O)C(O)=C1C2=O",
    "tested_system": "carbapenem-resistant Escherichia coli clinical isolates (blaKPC)",
    "MIC, µg/mL": 4
  },
  {
    "compound": "O=C(N[C@H](CO)[C@H](O)c1ccc([N+](=O)[O-])cc1)C(Cl)Cl",
    "tested_system": "carbapenem-resistant Escherichia coli clinical isolates (blaKPC)",
    "MIC, µg/mL": 16
  },
  {
    "compound": "CO/N=C(\\C(=O)N[C@@H]1C(=O)N2C(C(=O)[O-])=C(C[N+]3(C)CCCC3)CS[C@H]12)c1csc(N)n1 [FEP, cefepime]",
    "tested_system": "carbapenem-resistant Escherichia coli clinical isolates (blaKPC)",
    "MIC, µg/mL": 8
  }
]

Lookup: Tell me MIC reported for CO[C@H]1/C=C/O[C@@]2(C)Oc3c(C)c(O)c4c(O)c(c(/C=N/N5CCN(C)CC5)c(O)c4c3C2=O)NC(=O)/C(C)=C\C=C\[C@H](C)[C@H](O)[C@@H](C)[C@@H](O)[C@@H](C)[C@H](OC(C)=O)[C@@H]1C
Found: 16

Lookup: Tell me MIC reported for C[C@@H](O)[C@H]1C(=O)N2C(C(=O)O)=C(S[C@@H]3CN[C@H](C(=O)Nc4cccc(C(=O)O)c4)C3)[C@H](C)[C@H]12
Found: 4

From: patent US20230304064A1
